// data source = patent US20210024646A1

Below is a list of entries, each paired with its recorded EC50 value.
Target: T1, CD73 on the surface of human tumor cells (human, UniProt P21589 27-549)
T1 construct: whole, on cells; One entry for endogenous CD73 on all cell lines; the cell line is named under assay or readout; also called CD73 receptors on the surface of tumor cells; tumor cell CD73
T1 sequence (looked up): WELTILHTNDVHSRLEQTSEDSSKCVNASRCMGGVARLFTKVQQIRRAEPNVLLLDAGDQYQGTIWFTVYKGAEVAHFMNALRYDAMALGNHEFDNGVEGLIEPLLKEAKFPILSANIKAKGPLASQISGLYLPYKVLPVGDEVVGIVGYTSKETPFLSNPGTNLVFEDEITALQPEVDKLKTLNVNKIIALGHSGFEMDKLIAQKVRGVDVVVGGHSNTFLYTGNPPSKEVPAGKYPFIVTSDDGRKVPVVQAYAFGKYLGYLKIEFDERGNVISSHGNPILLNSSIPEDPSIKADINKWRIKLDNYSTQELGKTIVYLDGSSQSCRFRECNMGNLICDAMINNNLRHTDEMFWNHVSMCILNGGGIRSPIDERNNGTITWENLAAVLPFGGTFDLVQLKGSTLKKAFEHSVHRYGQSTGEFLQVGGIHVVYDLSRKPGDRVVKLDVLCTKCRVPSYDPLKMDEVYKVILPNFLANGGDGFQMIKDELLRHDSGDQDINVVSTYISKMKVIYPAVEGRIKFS
Experiment: flow cytometry, MDA-MB-231 cells
Please reply with the bare figure in nM and do not write the unit itself.

mAb002c (antibody, V domains shown, also called human-mouse chimeric antibody mAb002c) VH: QVQLQQPGAELVKPGASVRLSCKASGYTLTSYWMHWVKKRPGQGLEWIGEINPSNGRSNYNEKFKSKATLTVDRSSSTVYMQLGSLTSEDSAVYYCARRGVSGNYFDYWGQGTTLTVSS VL: DIKMTQSPSSMYASLGERVTMTCKASQDINTYLSWFQQKPGKSPKTLIYRSNILVDGVPSRFSGSRSGQDYYLTITSLEYEDMGIYYCLQYDEFPYTFGGGTKLELK ... 0.36
mAb002c-VH-NA (antibody, V domains shown) VH: QVQLQQPGAELVKPGASVRLSCKASGYTLTSYWMHWVKKRPGQGLEWIGEINPSNARSNYNEKFKSKATLTVDRSSSTVYMQLGSLTSEDSAVYYCARRGVSGNYFDYWGQGTTLTVSS VL: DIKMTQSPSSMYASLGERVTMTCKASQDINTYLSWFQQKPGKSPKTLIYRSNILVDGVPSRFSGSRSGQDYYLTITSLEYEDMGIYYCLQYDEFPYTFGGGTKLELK ... 0.43
mAb001c-VK-SGS (antibody, V domains shown) VH: QVQLQQSGPELVKPGASVRISCKTSGYTFTNYYIYWVKQRPGQGLEWIGWIYPGNLNIKYNEKFKGKSTLTADKSSSTAFMQLSSLTSEDSAVYFCARDDNYAWFAYWGQGTLVTVSS VL: DIVMTQSHKFMSTSIGDRVSITCKASQDVSTAVAWYQQKPGQSPKLLIYWTNTRHTGVPDRFTGSGSGTEHTLTISSVQAEDLALYYCQQHYSTPFTFGSGTTLEIK ... 1.39

Kindly consider the entry below.
Request: Name the recorded EC50 for mAb004c (antibody, V domains shown, also called human-mouse chimeric antibody mAb004c) VH: EVQLQQSGPELVKPGASVKIPCKASGYTFTDYNMDWVKQSHGKSLEWIGDINPNNGGSVYNQKFKGKATLTVDKSSSTAYMELRSLTSEDTAVYYCGRITGTGYWSFDVWGTGTTVTVSP VL: DIQMTQSPASLSVSVGETVTITCRASENIYSNLAWYQQKQGKSPQLLVYGATNLAEGVPSRFSGSGLGTQYSLKISSLQSEDFGSYYCQHFWGIPWTFGGGTKLEIK .
Response: 2.5
